assay: Rat brain penetration study; assay type: in vivo, male Han Wistar rats; details: male, Han Wistar, whole blood, intravenous, 5 mg free base/kg, 1b 5 mg/kg i.v., 15 min, single rats, read-out: In blood, prodrug 1b
measured-metric: concentration at 15 min

Measured concentration at 15 min, "CCOC(=O)CN1C(=O)COc2cc(C)c(Cl)c(C)c21" : ≤ 3 ng/mL

###

target: Homo sapiens KMO (HsKMO) (Homo sapiens)
Sequence (O15229 whole entry): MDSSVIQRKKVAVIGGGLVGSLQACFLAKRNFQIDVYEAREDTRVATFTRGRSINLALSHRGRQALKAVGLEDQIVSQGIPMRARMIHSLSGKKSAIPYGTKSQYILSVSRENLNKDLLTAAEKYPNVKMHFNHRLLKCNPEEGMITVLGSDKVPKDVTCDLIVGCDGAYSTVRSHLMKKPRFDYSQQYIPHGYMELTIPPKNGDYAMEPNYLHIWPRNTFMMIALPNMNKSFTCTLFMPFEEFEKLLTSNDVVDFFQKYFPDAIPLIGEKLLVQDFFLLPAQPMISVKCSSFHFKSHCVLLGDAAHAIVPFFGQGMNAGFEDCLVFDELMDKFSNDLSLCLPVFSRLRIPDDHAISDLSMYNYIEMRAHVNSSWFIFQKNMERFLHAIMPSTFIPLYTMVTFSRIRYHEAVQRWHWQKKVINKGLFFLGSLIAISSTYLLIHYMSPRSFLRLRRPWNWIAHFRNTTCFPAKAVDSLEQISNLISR
Each record is given Y if its reported IC50 is strictly below 2 µM. Records at or above 2 µM are given N.

These recorded examples may help you get a feel for the data.
compound	category
Cn1c(C(=O)N[C@@H](C(=O)O)c2ccccc2)cc2cc(Cl)ccc21	N
O=C(O)c1ccc(-c2ccccc2C(F)(F)F)o1	N
O=C(O)c1ccc(-c2ccc(Cl)c(Cl)c2)o1	N
O=C(Nc1ccccc1C(=O)O)c1ccc(-c2ccc(Cl)cc2Cl)o1	Y
O=C(O)CCc1ccc(-c2cccs2)n1-c1ccc(Br)cc1	Y

Exam item: I wonder whether CC(CSc1ccc(Cl)cc1)C(=O)O (stereo not shown) has IC50 below 2 µM. Can you tell?
Marked response: N

Exam item: I wonder whether "Oc1ccc(-c2csc3nc(-c4ccccc4)nn23)c(O)c1" has IC50 below 2 µM. Can you tell?
Marked response: N

Exam item: I wonder whether "Cc1cc2c(c(C)c1Cl)N(CC(N)=O)C(=O)CO2" has IC50 below 2 µM. Can you tell?
Marked response: N

Exam item: I wonder whether "COc1ccc(-c2cn(CC(=O)O)c(=O)cn2)cc1" has IC50 below 2 µM. Can you tell?
Marked response: N

###

Provide the reported recovery at 1 h, 10 µM of each item.
assay: in vitro; type: in vitro ADME, canine; settings: dog, MDCK, pH 7.4, wild type MDCK; read-out: Recovery B>A n=1
Numbers only, in %.

compound	unit-name	recovery at 1 h, 10 µM
CC(C)NCC(O)COc1cccc2ccccc12 (stereo not drawn) [Propranolol, reference compound]	%	77

Hi team, please reply with recovery at 1 h, 10 µM for each item in this list.
1. Cc1cc2c(c(C)c1Cl)N(CC(=O)O)C(=O)CO2 [compound 1]
2. Cn1c(C(=O)N[C@@H](C(=O)O)c2ccccc2)cc2cc(F)ccc21 [compound 5]
3. Oc1ccc(-c2csc3nc(-c4ccccc4)nn23)c(O)c1 [compound 3]
4. CC[C@]1(O)C[C@@H]2CN(CCc3c([nH]c4ccccc34)[C@@](C(=O)OC)(c3cc4c(cc3OC)N(C)[C@H]3[C@@](O)(C(=O)OC)[C@H](OC(C)=O)[C@]5(CC)C=CCN6CC[C@]43[C@@H]65)C2)C1 [Vinblastine, reference compound]

Marked response:
1. 108
2. 86
3. 50
4. 71

Measured recovery at 1 h, 10 µM, CC(CSc1ccc(Cl)cc1)C(=O)O (stereo not drawn) [compound 6] : 98

###

assay: in vitro; format: in vitro ADME, canine; details: dog, MDCK, pH 7.4, wild type MDCK; read-out: Recovery A>B n=2
The label depends only on recovery at 1 h, 10 µM: y if it is at least 80%, n if it is smaller.

These recorded examples may help you get a feel for the data.
molecule	category
Oc1ccc(-c2csc3nc(-c4ccccc4)nn23)c(O)c1 [compound 3]	n
CC(CSc1ccc(Cl)cc1)C(=O)O (stereo not drawn) [compound 6]	n
CC(C)NCC(O)COc1cccc2ccccc12 (stereo not drawn) [Propranolol, reference compound]	y
CC[C@]1(O)C[C@@H]2CN(CCc3c([nH]c4ccccc34)[C@@](C(=O)OC)(c3cc4c(cc3OC)N(C)[C@H]3[C@@](O)(C(=O)OC)[C@H](OC(C)=O)[C@]5(CC)C=CCN6CC[C@]43[C@@H]65)C2)C1 [Vinblastine, reference compound]	n

Exam item: Could you tell me if the measured recovery at 1 h, 10 µM of Cc1cc2c(c(C)c1Cl)N(CC(=O)O)C(=O)CO2 [compound 1] reaches 80% or more?
Marked response: y

###

Provide the reported Papp B→A at 1 h, 10 µM of each item.
experiment: in vitro; format: in vitro ADME, canine; settings: dog, MDCK, pH 7.4, Papp B>A n=2, wild type MDCK
Give bare numbers, in ×10⁻⁶ cm/s.

Hi team, please reply with Papp B→A at 1 h, 10 µM for each item in this list.
1. Cc1cc2c(c(C)c1Cl)N(CC(=O)O)C(=O)CO2
2. Cn1c(C(=O)N[C@@H](C(=O)O)c2ccccc2)cc2cc(F)ccc21
3. CC(CSc1ccc(Cl)cc1)C(=O)O (stereo not drawn)
4. CC(C)NCC(O)COc1cccc2ccccc12 (stereo not drawn) [Propranolol, reference compound]
5. CC[C@]1(O)C[C@@H]2CN(CCc3c([nH]c4ccccc34)[C@@](C(=O)OC)(c3cc4c(cc3OC)N(C)[C@H]3[C@@](O)(C(=O)OC)[C@H](OC(C)=O)[C@]5(CC)C=CCN6CC[C@]43[C@@H]65)C2)C1 [Vinblastine, reference compound]
6. Oc1ccc(-c2csc3nc(-c4ccccc4)nn23)c(O)c1

Marked response:
1. 2.3
2. 1.4
3. 50
4. 31
5. 3.9
6. 3.2

###

assay: Kinetic solubility in PBS, pH 7.4 (2% DMSO); assay type: physicochemical; conditions: PBS with 2% DMSO, pH 7.4, aqueous buffer, kinetic from dmso stock, PBS, pH 7.4 (2% DMSO); read-out: Solubility n=1
Provide the reported solubility at 2 h of each item.
One number for each entry, in µM.

Example entries begin here.
compound	measured-metric	recorded-number
Cn1c(C(=O)N[C@@H](C(=O)O)c2ccccc2)cc2cc(F)ccc21	solubility at 2 h	186
Oc1ccc(-c2csc3nc(-c4ccccc4)nn23)c(O)c1	solubility at 2 h	68
CC(CSc1ccc(Cl)cc1)C(=O)O (centres unmarked)	solubility at 2 h	186
COC(=O)[C@H]1[C@H]2C[C@@H]3c4[nH]c5cc(OC)ccc5c4CCN3C[C@H]2C[C@@H](OC(=O)c2cc(OC)c(OC)c(OC)c2)[C@@H]1OC [Reserpine, reference compound]	solubility at 2 h	9

We now examine a further compound.
Measured solubility at 2 h, "Cc1cc2c(c(C)c1Cl)N(CC(=O)O)C(=O)CO2" : 191

###

test system: K562 cells; assay: Competition assay for uptake of riboflavin; assay type: cell-based, Human; conditions: 1 µM riboflavin plus 100 µM compound, time 1
measured-metric: Mean FL2-A, compound + riboflavin (RF)

Example entries begin here.
COC(=O)CN1C(=O)COc2cc(C)c(Cl)c(C)c21 66.6886
CCOC(=O)CN1C(=O)COc2cc(C)c(Cl)c(C)c21 68.4214
Cc1cc2c(c(C)c1Cl)N(CC(=O)O)C(=O)CO2 57.8501

Measured Mean FL2-A, compound + riboflavin (RF), "Cc1cc2c(c(C)c1Cl)N(CC(=O)OC(C)C)C(=O)CO2" : 59.0947

###

target: PfKMO (Pseudomonas fluorescens, UniProt Q84HF5, C252S/C461S); construct: made in house; host or cells: E. coli BL21 (DE3); test: Stopped-flow reduction of flavin cofactor by NADPH; format: biochemical; settings: rapid mixing stopped-flow assays
Sequence (Q84HF5 whole entry C252S/C461S): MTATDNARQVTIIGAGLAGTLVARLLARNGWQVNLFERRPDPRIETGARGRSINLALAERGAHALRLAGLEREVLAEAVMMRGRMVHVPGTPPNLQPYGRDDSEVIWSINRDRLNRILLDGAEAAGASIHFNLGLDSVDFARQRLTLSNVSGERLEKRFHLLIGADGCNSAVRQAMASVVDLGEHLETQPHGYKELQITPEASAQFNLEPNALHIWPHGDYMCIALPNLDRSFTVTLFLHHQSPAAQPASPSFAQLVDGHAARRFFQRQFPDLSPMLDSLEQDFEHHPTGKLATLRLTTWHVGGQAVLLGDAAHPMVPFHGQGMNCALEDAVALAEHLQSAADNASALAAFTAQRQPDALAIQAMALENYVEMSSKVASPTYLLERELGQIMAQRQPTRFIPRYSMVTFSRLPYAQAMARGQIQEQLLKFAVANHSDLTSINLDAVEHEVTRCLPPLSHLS

compound	Stimulation of KMO reduction by NADPH
Cn1c(C(=O)N[C@@H](C(=O)O)c2ccccc2)cc2cc(Cl)ccc21 [compound 4]	do not stimulate
Cc1cc2c(c(C)c1Cl)N(CC(=O)O)C(=O)CO2 [compound 1]	do not stimulate
O=C(O)c1ccc(-c2ccc(Cl)c(Cl)c2)o1 [compound 13]	do not stimulate
O=C(O)c1ccc(-c2cccc(Cl)c2Cl)o1 [compound 9]	do not stimulate

###

biological target: PfKMO (Pseudomonas fluorescens, UniProt Q84HF5, C252S/C461S); test: biochemical
measured-metric: Ki
The number alone won't do; follow it with the unit.

Example entries begin here.
O=C(O)c1ccc(-c2cccc(Cl)c2Cl)o1 150 nM
Cc1cc2c(c(C)c1Cl)N(Cc1nn[nH]n1)C(=O)CO2 1060 nM
O=C(O)c1ccc(-c2ccc(Cl)c(Cl)c2)o1 20 nM

We now examine a further molecule.
Measured Ki, "Cn1c(C(=O)N[C@@H](C(=O)O)c2ccccc2)cc2cc(Cl)ccc21" : 3000 nM

###

Assay: Rat brain penetration study
Format: in vivo, male Han Wistar rats
Settings: male, Han Wistar, brain (unbound), intravenous, 5 mg free base/kg, 1b 5 mg/kg i.v., 30 min, single rats, read-out: Unbound brain, prodrug 1b
Procedure: Prodrug 1b was dosed as a bolus solution intravenously at 5 mg free base/kg (dose volume: 1 mL/kg; dose vehicle: 10% DMSO; 60% PEG400; 30% MilliQ H2O) to male Han Wistar rats (n = 12). […] Sample extraction for blood and brain homogenate was by protein precipitation (1:3 or 1:6) using ACN containing suitable internal standard. […] An aliquot of each supernatant was then diluted two-fold in distilled water ready for analysis by UPLC-MS/MS. […]
measured-metric: concentration at 30 min (ng/g)
Numbers only, in ng/g.

Measured concentration at 30 min, CCOC(=O)CN1C(=O)COc2cc(C)c(Cl)c(C)c21 [1b] : 4
